- experiment.description: Kinetic solubility analysis
- Type: physicochemical
- particulars: 1× PBS, 24.2 °C, aqueous buffer, kinetic from dmso stock; pH 7.4 PBS, 1% DMSO, 24-hour incubation at ambient temperature
- Protocol: Example 108: Kinetic Solubility Analysis Buffer Preparation: 0.1 N HCl: Hydrochloric acid, 0.1 N standardized solution (MP Biomedicals part number 199569). […] The final DMSO concentration was 1.0% (v/v) and maximum theoretical compound concentration is 100 μM (for compound stock concentration of 10 mM). […] Filtrates were injected into the Antek 8060 chemiluminescent nitrogen detector for quantification. […] The filtrates were quantified with respect to this calibration curve. […]
Below, each entry is listed alongside its reported solubility kinetic at 24 h.

>  <compound>
CCCCCCOC(=O)C(NP(=O)(CO[C@H](C)Cn1cnc2c(N)ncnc21)NC(C(=O)OCCCCCC)(C1CC1)C1CC1)(C1CC1)C1CC1

>  <solubility kinetic at 24 h>
< 1 µg/mL

$$$$
>  <compound>
C[C@H](Cn1cnc2c(N)ncnc21)OCP(=O)(NC(C)(C)C(=O)OCC1CCC2(CCC2)CC1)NC(C)(C)C(=O)OCC1CCC2(CCC2)CC1 (stereo partly drawn)

>  <solubility kinetic at 24 h>
< 1 µg/mL

$$$$
>  <compound>
CCC[C@H]1CC[C@H](COC(=O)C(C)(C)NP(=O)(CO[C@H](C)Cn2cnc3c(N)ncnc32)NC(C)(C)C(=O)OC[C@H]2CC[C@H](CCC)CC2)CC1

>  <solubility kinetic at 24 h>
< 1 µg/mL

$$$$

* * *

solubility kinetic at 24 h values for the compounds below.
- experiment.description: Kinetic solubility analysis
- Assay type: physicochemical
- particulars: 1× PBS, 24.2 °C, aqueous buffer, kinetic from dmso stock; pH 7.4 PBS, 1% DMSO, 24-hour incubation at ambient temperature

>  <compound>
C[C@H](Cn1cnc2c(N)ncnc21)OCP(=O)(NC(C)(C)C(=O)OCC1CC2(CCC2)C1)NC(C)(C)C(=O)OCC1CC2(CCC2)C1 (stereo partly drawn)

>  <output.unit>
µg/mL

>  <modifier>
<

>  <solubility kinetic at 24 h>
1

$$$$
>  <compound>
C[C@H](Cn1cnc2c(N)ncnc21)OCP(=O)(NC(C)(C)C(=O)OCC12CCC(CC1)CC2)NC(C)(C)C(=O)OCC12CCC(CC1)CC2

>  <output.unit>
µg/mL

>  <modifier>
<

>  <solubility kinetic at 24 h>
1

$$$$
>  <compound>
C[C@H](Cn1cnc2c(N)ncnc21)OCP(=O)(NC(C)(C)C(=O)OCC12CC3CC(CC(C3)C1)C2)NC(C)(C)C(=O)OCC12CC3CC(CC(C3)C1)C2

>  <output.unit>
µg/mL

>  <modifier>
<

>  <solubility kinetic at 24 h>
1

$$$$
>  <compound>
C[C@H](Cn1cnc2c(N)ncnc21)OCP(=O)(NC(C)(C)C(=O)OCC1CC2(C1)CC(F)(F)C2)NC(C)(C)C(=O)OCC1CC2(C1)CC(F)(F)C2

>  <output.unit>
µg/mL

>  <modifier>
=

>  <solubility kinetic at 24 h>
51

$$$$
>  <compound>
C[C@H](Cn1cnc2c(N)ncnc21)OCP(=O)(NC(C)(C)C(=O)O[C@H]1C[C@@H](c2ccccc2)C1)NC(C)(C)C(=O)O[C@H]1C[C@@H](c2ccccc2)C1

>  <output.unit>
µg/mL

>  <modifier>
=

>  <solubility kinetic at 24 h>
6

$$$$
>  <compound>
C[C@H](Cn1cnc2c(N)ncnc21)OCP(=O)(NC(C)(C)C(=O)OCCCCC(F)(F)F)NC(C)(C)C(=O)OCCCCC(F)(F)F

>  <output.unit>
µg/mL

>  <modifier>
=

>  <solubility kinetic at 24 h>
84

$$$$
